Molecular target: T1, human ICOS (human, UniProt Q9Y6W8 21-199)
T1 sequence: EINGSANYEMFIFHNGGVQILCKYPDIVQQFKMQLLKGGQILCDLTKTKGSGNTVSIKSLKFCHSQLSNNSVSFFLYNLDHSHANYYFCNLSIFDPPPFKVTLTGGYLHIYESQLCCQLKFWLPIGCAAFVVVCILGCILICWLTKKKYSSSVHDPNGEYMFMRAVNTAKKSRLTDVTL
Test: cell-based or functional assay
Experimental readout: Max (Counts/sec), Jurkat-NFAT reporter cell line

[[record]]
binder = "Molecule 27 (ICOS H009v1_3) (antibody, human IgG1, kappa, L234A L235A, V domains shown, Human IgG format) VH: EVQLVESGGGLVQPGRSLRLSCTASGFTFSDYWMNWVRQAPGKGLEWVAQIRNKPYNYETYYAASVKGRFTISRDDSKSIAYLQMNSLKTEDTAVYYCTWPRLRSSDWHFDVWGKGTTVTVSS VL: DIQMTQSPSSLSASVGDRVTITCQASQDINKNIAWYQQKPGKAPKLLIWYTSTLQTGVPSRFSGSGSGTDFTFTISSLQPEDIATYYCLQFDNLYTFGQGTKLEIKR"
observed = 47400

[[record]]
binder = "Molecule 34 (ICOS H1138_2) (antibody, human IgG1, kappa, L234A L235A, V domains shown, Human IgG format) VH: EVQLLESGGGLVQPGGSLRLSCAASGFDLSSYYYMSWVRQAPGKGLEWVSSIYADIYGGTTHYASWAKGRFTISRDNSKNTLYLQMNSLRAEDTAVYFCAREDGSRYGGSGYYNLWGQGTLVTVSS VL: AIQMTQSPSSLSASVGDRVTITCRASQNIYSNLAWYQQKPGKPPKLLIYAASYLTSGVSSRFSGSGSGTDFTLTISSLQPEDFATYYCQQGHTTDNIDNAFGGGTKVEIKR"
observed = 38400

[[record]]
binder = "Molecule 33 (ICOS H1138_1) (antibody, human IgG1, kappa, L234A L235A, V domains shown, Human IgG format) VH: EVQLLESGGGLVQPGGSLRLSCAASGFDLSSYYYMSWVRQAPGKGLEWVSSIYADIYGGTTHYASWAKGRFTISKTSSKTTLYLQMNSLRAEDTAVYFCAREDGSRYGGSGYYNLWGQGTLVTVSS VL: DIQMTQSPSSLSASVGDRVTITCRASQNIYSNLAWYQQKPGQPPKLLIYAASYLTSGVPSRFSGSGSGTDFTLTISSLQPEDFATYYCQQGHTTDNIDNAFGGGTKVEIKR"
observed = 41400

[[record]]
binder = "Molecule 31 (ICOS H1143v2_3) (antibody, human IgG1, kappa, L234A L235A, V domains shown, Human IgG format) VH: EVQLLESGGGLVQPGGSLRLSCAASGFDFSSAYDMSWVRQAPGKGLEWIGVIYYGDGITYYADSVKGRFTISRDNSNTLYLQMNSLRAEDTAVYFCARGAFLGSSYYLSLWGQGTLVTVSS VL: DIQMTQSPSSLSASVGDRVTITCRASENIYNWLAWYQQKPGKAPKLLIYDASKLASGVPSRFSGSGSGTDFTLTISSLQPEDFATYYCQQAYTYGNIDNAFGGGTKVEIKR"
observed = 52000

[[record]]
binder = "Molecule 28 (ICOS 1143v2) (antibody, human IgG1, kappa, L234A L235A, V domains shown, Human IgG format; also called parent antibody of Molecules 29-31) VH: QSLEESGGDLVKPGASLTLTCKASGFDFSSAYDMSWVRQAPGKGLEWIGVIYYGDGITYYATSVKGRFTISKTSSTTVPLQMTSLTAADTATYFCARGAFLGSSYYLSLWGQGTLVTVSS VL: AIDMTQTPASVEAAVGGTVTINCQASENIYNWLAWYQQKPGQPPKLLIYDASKLASGVPSRFSASGSGTQFTLTISAVESADAATYYCQQAYTYGNIDNAFGGGTEVVVSR"
observed = 52300

[[record]]
binder = "Molecule 30 (ICOS H1143v2_2) (antibody, human IgG1, kappa, L234A L235A, V domains shown, Human IgG format) VH: EVQLLESGGGLVQPGGSLRLSCAASGFDFSSAYDMSWVRQAPGKGLEWVSVIYYGDGITYYADSVKGRFTISKTSSKTTLYLQMNSLRAEDTAVYFCARGAFLGSSYYLSLWGQGTLVTVSS VL: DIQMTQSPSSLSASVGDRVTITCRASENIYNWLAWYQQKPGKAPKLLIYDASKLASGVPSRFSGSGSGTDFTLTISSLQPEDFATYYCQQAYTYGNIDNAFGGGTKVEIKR"
observed = 55300


Reference for the values: patent US20220098305A1
